Tested on: pTau
Test: pTau assay (method not described)
Format: cell-based
Conditions: read-out: pTau
Readings of IC50 for the listed compounds
The response must be a number in nM with no trailing unit.

For orientation, consider the following solved cases.
{"columns": ["COMPOUND", "ATTRIBUTE_MEASURED", "REPORTED_MEASUREMENT"],
 "data": [
  ["CC(C)C(=O)Nc1cc(C(=O)Nc2cncc(C(O)c3ccccc3)c2)ccn1 (stereo not drawn) [Example 197]", "IC50", 320],
  ["Cn1ccc(-c2cncc(NC(=O)c3ccnc(NC(=O)C4CC4)c3)c2)c1 [Example 151]", "IC50", 240],
  ["Cc1cc(-c2ccncc2NC(=O)c2ccnc(NC(=O)C3CC3)c2)cs1 [Example 43]", "IC50", 49]
]}

In: // returns reported IC50 for input O=C(Nc1cncc(-c2ccc(F)nc2)c1)c1ccnc(NC(=O)C2CC2)c1 [Example 163]
Out: 130

In: Same again, this time with CC(C)C(=O)Nc1cc(C(=O)Nc2cnccc2OCCN2CCOCC2)ccn1 [Example 189]
Out: 99

----------
Target: GSK3β (Homo sapiens, UniProt P49841)
Sequence (P49841 whole entry, species assumed): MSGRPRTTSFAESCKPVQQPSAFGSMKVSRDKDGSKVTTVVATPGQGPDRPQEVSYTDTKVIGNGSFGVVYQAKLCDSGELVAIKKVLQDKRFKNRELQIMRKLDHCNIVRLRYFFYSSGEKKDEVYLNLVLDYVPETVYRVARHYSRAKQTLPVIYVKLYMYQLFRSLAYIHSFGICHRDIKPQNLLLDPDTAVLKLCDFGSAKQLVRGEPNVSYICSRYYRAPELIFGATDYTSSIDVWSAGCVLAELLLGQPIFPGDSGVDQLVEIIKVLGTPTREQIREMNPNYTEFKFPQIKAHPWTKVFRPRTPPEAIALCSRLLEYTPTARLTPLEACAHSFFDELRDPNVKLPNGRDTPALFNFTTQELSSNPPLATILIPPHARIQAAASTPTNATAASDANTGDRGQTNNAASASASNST
Test: GSK3β kinase assay (Caliper LabChip3000, fluoresceinated peptide substrate)
Type: biochemical
Settings: first value of the cell; 250 pM enzyme, 20 uM ATP, 20 hours at room temperature; read-out: GSK3β/α (nM): GSK3β IC50
ATTRIBUTE_MEASURED: IC50 (nM)
The response must be a number in nM with no trailing unit.

For orientation, consider the following solved cases.
{"columns": ["COMPOUND", "VALUE_UNIT", "IC50"],
 "data": [
  ["O=C(Nc1c(-c2ccccc2)ccnc1Cl)c1ccnc(NC(=O)C2CC2)c1", "nM", 78],
  ["Cc1cc(NC(=O)c2ccnc(NC(=O)C3CC3)c2)cnc1F", "nM", 48]
]}

In: Identify the measured IC50 of Cc1ccc(NC(=O)c2ccnc(NC(=O)C3CC3)c2)cn1 for GSK3β (Homo sapiens, UniProt P49841).
Out: 30

----------
Target: GSK3α (Homo sapiens)
Sequence (P49840 whole entry, species assumed): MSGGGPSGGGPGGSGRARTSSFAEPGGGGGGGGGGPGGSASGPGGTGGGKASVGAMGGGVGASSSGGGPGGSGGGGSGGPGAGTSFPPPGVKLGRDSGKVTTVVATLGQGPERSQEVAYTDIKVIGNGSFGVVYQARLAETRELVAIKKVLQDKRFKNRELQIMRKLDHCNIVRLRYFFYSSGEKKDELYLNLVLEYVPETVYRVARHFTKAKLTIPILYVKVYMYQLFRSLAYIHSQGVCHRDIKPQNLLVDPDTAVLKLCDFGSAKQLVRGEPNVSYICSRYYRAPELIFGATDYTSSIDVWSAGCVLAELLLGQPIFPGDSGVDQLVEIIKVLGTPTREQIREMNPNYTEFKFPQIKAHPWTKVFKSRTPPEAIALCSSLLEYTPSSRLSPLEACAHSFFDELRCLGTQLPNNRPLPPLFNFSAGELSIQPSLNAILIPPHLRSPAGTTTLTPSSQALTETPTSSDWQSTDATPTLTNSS
Test: biochemical
Conditions: second value of the cell; 250 pM enzyme, 20 uM ATP, 20 hours at room temperature; read-out: GSK3β/α (nM): GSK3α IC50
Readings of log10 of IC50 for the listed molecules
Answers are given as log10 of IC50 in nM.

{"columns": ["MOLECULE", "log10 of IC50"],
 "data": [
  ["CC1CC1C(=O)Nc1cc(C(=O)Nc2cnccc2-c2ccccc2)ccn1 (stereo not drawn)", 0.88],
  ["CN(C)c1ccccc1-c1cncc(NC(=O)c2ccnc(NC(=O)C3CC3)c2)c1", 1.26],
  ["CC1(C)CC(C(=O)Nc2cc(C(=O)Nc3cnccc3-c3ccccc3)ccn2)C1", 0.51]
]}

In: Identify the measured log10 of IC50 of O=C(Nc1cncc(-c2ccccc2)c1)c1ccnc(NC(=O)C2CC(F)(F)C2)c1 for GSK3α (Homo sapiens).
Out: 0.46

----------
Target: GSK3β (Homo sapiens, UniProt P49841)
Assay: GSK3β kinase assay (Caliper LabChip3000, fluoresceinated peptide substrate)
Assay type: biochemical
Protocol: The kinase assay was performed in V-bottom 384-well plates. […] The reaction was incubated at room temperature for 20 hours and terminated by adding 45 μl of 35 mM EDTA to each sample. The reaction mixture was analyzed on the Caliper LabChip3000 (Caliper, Hopkinton, Mass.) by electrophoretic separation of the unphosphorylated substrate and phosphorylated product. […] Compounds were dissolved at 10 mM in dimethylsulfoxide (DMSO) and evaluated at eleven concentrations. […]
Readings of pIC50 for the listed compounds
# pIC50 is unitless: minus log10 of the molar concentration; print number only

For orientation, consider the following solved cases.
{"columns": ["COMPOUND", "ASSAY_TARGET", "REPORTED_MEASUREMENT"],
 "data": [
  ["O=C(Nc1cnccc1-c1ccccc1)c1ccnc(NC(=O)C2CC(F)(F)C2)c1", "GSK3β (Homo sapiens, UniProt P49841)", 8.72],
  ["CC(O)c1ccncc1NC(=O)c1ccnc(NC(=O)C2CC2)c1 (stereo not drawn)", "GSK3β (Homo sapiens, UniProt P49841)", 9.60],
  ["CCOc1ccncc1NC(=O)c1ccnc(NC(=O)C2CCC2)c1", "GSK3β (Homo sapiens, UniProt P49841)", 8.66],
  ["CC1CN(c2ccncc2NC(=O)c2ccnc(NC(=O)C3CC3)c2)CCO1 (racemic)", "GSK3β (Homo sapiens, UniProt P49841)", 9.27]
]}

In: // returns reported pIC50 for input O=C(Nc1cnccc1-c1ccccc1)c1ccnc(NC(=O)C2CCC2)c1
Out: 8.37
